# Lookup of reported inhibition keyed by entry
# TARGET_DESC: FGFR4 (human) (UniProt P22455)
# Sequence (P22455 whole entry, looked up): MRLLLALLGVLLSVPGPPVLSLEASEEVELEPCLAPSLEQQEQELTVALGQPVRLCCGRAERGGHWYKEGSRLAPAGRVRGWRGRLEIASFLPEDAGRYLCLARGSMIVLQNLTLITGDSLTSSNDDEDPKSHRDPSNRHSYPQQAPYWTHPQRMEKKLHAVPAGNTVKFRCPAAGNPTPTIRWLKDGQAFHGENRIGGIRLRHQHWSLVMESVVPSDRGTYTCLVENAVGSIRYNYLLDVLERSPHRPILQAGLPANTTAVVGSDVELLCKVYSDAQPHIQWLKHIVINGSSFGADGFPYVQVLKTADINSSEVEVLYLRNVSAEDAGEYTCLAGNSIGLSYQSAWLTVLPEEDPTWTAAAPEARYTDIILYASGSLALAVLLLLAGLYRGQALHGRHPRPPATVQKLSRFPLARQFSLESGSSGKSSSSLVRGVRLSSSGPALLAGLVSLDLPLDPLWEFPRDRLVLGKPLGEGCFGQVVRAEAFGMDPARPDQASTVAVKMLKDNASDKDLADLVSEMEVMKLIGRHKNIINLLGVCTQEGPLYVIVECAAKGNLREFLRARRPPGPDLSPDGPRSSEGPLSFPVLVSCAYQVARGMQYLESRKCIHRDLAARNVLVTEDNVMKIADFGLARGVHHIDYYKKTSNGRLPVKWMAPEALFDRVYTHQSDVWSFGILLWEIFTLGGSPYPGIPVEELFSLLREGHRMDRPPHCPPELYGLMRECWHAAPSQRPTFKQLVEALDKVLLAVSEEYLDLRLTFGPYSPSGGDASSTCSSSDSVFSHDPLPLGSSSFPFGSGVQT
# EXPERIMENTAL_PROTOCOL: Caliper, Mobility shift assay off-chip
# CONDITIONS: compound 0.2 µM
Use % as the unit, but write only the number.

CNC(=O)c1cc(Oc2ccc(NC(=O)Nc3ccc(Cl)c(C(F)(F)F)c3)cc2)ccn1    8.8

Given item Cc1ccc(Nc2nccc(N(C)c3ccc4c(C)n(C)nc4c3)n2)cc1S(N)(=O)=O , the value recorded as its inhibition is 29.7

CCN(CC)CCNC(=O)c1c(C)[nH]c(/C=C2\C(=O)Nc3ccc(F)cc32)c1C yielded inhibition of 10.3

Short answer for COc1cc2c(Oc3ccc4[nH]c(C)cc4c3F)ncnc2cc1OCCCN1CCCC1 : inhibition was 22.3

====

Documented inhibition across a set of molecules
# TARGET_DESC: CAMK1 (human)
# EXPERIMENTAL_PROTOCOL: Caliper, Mobility shift assay off-chip
# CONDITIONS: compound 0.2 µM
Quick reminder: number only, in %, skip the unit.

COc1cc2c(Oc3ccc4[nH]c(C)cc4c3F)ncnc2cc1OCCCN1CCCC1    -3.1

For reference, reported inhibition for CCN(CC)CCNC(=O)c1c(C)[nH]c(/C=C2\C(=O)Nc3ccc(F)cc32)c1C stands at 7.3

The value of inhibition measured for the molecule CNC(=O)c1cc(Oc2ccc(NC(=O)Nc3ccc(Cl)c(C(F)(F)F)c3)cc2)ccn1 turned out to be -2.2

Recorded inhibition (molecule Cc1ccc(Nc2nccc(N(C)c3ccc4c(C)n(C)nc4c3)n2)cc1S(N)(=O)=O ): 1.4

====

# TARGET_DESC: PIM2 (human) (UniProt Q9P1W9)
# Sequence (Q9P1W9 whole entry, looked up): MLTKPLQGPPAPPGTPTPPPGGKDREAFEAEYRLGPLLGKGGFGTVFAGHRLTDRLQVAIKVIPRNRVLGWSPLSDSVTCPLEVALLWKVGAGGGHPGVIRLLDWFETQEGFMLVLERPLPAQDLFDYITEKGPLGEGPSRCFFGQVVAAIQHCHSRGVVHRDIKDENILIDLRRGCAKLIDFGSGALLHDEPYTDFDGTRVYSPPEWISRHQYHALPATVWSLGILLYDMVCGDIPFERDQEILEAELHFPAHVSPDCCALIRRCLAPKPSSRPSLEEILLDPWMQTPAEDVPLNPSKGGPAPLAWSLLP
# EXPERIMENTAL_PROTOCOL: Caliper, Mobility shift assay off-chip
# CONDITIONS: compound 0.02 µM
VALUE_TYPE: inhibition (%)
Report only the number, with the unit % understood.

Solved entries:
COc1cc2c(Oc3ccc4[nH]c(C)cc4c3F)ncnc2cc1OCCCN1CCCC1    6.1
Cc1ccc(Nc2nccc(N(C)c3ccc4c(C)n(C)nc4c3)n2)cc1S(N)(=O)=O    2.7
CNC(=O)c1cc(Oc2ccc(NC(=O)Nc3ccc(Cl)c(C(F)(F)F)c3)cc2)ccn1    -0.2

Proceed to the following item.
So, CNC(=O)c1ccccc1Sc1ccc2c(/C=C/c3ccccn3)n[nH]c2c1 ? Its inhibition was 2.5

====

# TARGET_DESC: ALK EML4 (human) (UniProt Q9HC35+Q9UM73)
# Sequence (Q9HC35 whole entry, looked up): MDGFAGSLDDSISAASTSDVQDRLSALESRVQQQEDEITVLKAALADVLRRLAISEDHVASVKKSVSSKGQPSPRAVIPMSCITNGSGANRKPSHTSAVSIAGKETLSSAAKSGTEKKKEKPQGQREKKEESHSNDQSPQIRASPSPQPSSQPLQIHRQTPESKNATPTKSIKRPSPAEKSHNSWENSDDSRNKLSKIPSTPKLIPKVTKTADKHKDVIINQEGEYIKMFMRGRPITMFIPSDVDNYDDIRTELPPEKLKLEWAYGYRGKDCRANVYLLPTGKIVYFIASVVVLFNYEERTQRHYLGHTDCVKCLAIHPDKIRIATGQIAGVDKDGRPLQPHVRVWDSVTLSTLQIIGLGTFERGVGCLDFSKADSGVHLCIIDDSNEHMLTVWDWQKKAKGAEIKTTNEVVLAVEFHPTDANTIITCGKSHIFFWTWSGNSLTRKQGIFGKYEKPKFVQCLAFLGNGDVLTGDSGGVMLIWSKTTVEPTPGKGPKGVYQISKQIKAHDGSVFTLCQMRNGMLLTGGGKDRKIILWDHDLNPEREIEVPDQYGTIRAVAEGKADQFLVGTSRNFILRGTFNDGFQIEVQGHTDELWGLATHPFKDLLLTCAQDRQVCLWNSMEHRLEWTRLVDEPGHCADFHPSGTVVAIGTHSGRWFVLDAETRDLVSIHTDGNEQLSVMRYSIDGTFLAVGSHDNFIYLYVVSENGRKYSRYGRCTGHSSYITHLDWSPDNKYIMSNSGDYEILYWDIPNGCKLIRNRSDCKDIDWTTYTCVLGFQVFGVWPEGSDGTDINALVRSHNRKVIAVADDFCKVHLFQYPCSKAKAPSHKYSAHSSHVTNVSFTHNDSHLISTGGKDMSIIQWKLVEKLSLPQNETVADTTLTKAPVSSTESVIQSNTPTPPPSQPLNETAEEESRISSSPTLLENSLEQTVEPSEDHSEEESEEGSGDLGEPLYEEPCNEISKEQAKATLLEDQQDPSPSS
# Sequence (Q9UM73 whole entry, looked up): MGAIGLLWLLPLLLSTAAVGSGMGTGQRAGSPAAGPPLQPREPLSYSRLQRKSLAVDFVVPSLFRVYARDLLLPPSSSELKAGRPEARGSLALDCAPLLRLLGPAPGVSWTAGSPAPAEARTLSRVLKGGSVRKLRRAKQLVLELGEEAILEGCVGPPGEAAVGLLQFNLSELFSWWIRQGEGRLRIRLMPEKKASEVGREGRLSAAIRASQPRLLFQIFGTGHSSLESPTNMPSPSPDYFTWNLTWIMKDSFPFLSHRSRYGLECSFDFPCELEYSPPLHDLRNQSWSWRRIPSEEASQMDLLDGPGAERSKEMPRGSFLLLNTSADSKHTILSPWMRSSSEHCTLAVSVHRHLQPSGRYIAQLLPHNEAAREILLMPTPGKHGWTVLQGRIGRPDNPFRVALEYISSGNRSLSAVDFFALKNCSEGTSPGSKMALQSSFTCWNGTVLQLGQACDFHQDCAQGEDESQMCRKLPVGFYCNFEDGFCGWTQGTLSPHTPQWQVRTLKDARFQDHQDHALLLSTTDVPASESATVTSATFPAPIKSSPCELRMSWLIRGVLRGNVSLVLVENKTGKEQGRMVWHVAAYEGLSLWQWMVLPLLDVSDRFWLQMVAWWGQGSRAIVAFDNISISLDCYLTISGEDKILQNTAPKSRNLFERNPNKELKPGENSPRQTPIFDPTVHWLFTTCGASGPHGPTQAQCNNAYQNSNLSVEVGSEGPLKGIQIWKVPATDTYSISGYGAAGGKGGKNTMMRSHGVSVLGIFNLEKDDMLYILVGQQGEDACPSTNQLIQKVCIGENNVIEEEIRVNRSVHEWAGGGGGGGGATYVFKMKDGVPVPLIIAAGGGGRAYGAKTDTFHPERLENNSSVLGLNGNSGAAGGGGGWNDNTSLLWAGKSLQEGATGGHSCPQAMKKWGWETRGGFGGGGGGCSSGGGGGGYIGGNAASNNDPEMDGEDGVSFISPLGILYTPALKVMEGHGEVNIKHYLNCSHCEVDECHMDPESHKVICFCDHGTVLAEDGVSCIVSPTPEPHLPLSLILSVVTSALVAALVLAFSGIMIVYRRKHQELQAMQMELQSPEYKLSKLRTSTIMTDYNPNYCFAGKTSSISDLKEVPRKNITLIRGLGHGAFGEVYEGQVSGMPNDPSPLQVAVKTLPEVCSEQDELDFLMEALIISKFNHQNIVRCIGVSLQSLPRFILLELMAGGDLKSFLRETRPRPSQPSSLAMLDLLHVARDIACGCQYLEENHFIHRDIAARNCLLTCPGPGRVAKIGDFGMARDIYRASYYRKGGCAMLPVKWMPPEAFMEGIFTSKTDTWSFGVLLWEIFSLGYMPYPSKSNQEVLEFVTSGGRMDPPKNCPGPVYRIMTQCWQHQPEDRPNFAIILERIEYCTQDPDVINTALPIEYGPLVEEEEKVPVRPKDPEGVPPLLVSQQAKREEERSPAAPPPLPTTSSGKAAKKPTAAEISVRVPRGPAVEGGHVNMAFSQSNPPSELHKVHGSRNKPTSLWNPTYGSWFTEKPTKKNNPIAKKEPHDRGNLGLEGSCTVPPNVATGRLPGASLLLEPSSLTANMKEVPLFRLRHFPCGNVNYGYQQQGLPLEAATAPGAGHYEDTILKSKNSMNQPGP
# EXPERIMENTAL_PROTOCOL: Caliper, Mobility shift assay off-chip
# CONDITIONS: compound 0.02 µM
The following molecules are shown together with reported inhibition values.
Express the result in % but write the number alone.

inhibition for CNC(=O)c1ccccc1Sc1ccc2c(/C=C/c3ccccn3)n[nH]c2c1 is -3.9

Lookup result for Cc1ccc(Nc2nccc(N(C)c3ccc4c(C)n(C)nc4c3)n2)cc1S(N)(=O)=O ; measured inhibition: -0.3

Entry CNC(=O)c1cc(Oc2ccc(NC(=O)Nc3ccc(Cl)c(C(F)(F)F)c3)cc2)ccn1 — recorded inhibition = -6.5

Entry under test: COc1cc2c(Oc3ccc4[nH]c(C)cc4c3F)ncnc2cc1OCCCN1CCCC1 . Its inhibition was -1.4

====

# TARGET_DESC: RPS6KA6 KD1 KD2 (human)
# EXPERIMENTAL_PROTOCOL: Caliper, Mobility shift assay off-chip
# CONDITIONS: compound 0.02 µM
Each entry below lists one item and its recorded inhibition value.
# value in %; strip the unit string

CNC(=O)c1cc(Oc2ccc(NC(=O)Nc3ccc(Cl)c(C(F)(F)F)c3)cc2)ccn1    -2
CNC(=O)c1ccccc1Sc1ccc2c(/C=C/c3ccccn3)n[nH]c2c1    -0.1
Cc1ccc(Nc2nccc(N(C)c3ccc4c(C)n(C)nc4c3)n2)cc1S(N)(=O)=O    1.2

Now for a further molecule.
The molecule listed as COc1cc2c(Oc3ccc4[nH]c(C)cc4c3F)ncnc2cc1OCCCN1CCCC1 shows inhibition equal to 15

Data credit: the kinase profiling compilation of Christmann-Franck et al. (2016)
